target: High affinity choline transporter 1 (Homo sapiens); experiment: inhibitors of human choline transporter CHT (AID 488975); conditions: CHT-expressing cells, membrane potential dye, choline response, at 10 µM
The whole screen tested about 310,000 compounds, of which about 2,600 (0.84%) were called active.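 The calls were made as follows: active = B-score over 3 SD under the library average, and starting fluorescence ratio not unusually high; inactive = the rest.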 This excerpt belongs to a sample that is enriched for actives.
Lab note: assign the record to one of active, inactive

Field: example entries. Status: answers known.
Query: In this assay, the call recorded for O=S(=O)(c1ccccc1)N1CCC(c2ccccc2)CC1 was what?
Response: inactive

Query: Recorded call for Cc1ccc(CS(=O)(=O)c2ncc(Cl)c(C(=O)Nc3nnc(C)s3)n2)cc1 ?
Response: active

Query: What outcome does the record of this test show for Cc1ccc(C(=O)C(C)OC(=O)Cc2n[nH]c(=O)c3ccccc23)cc1C (stereo unspecified) ?
Response: inactive

***
Query: Name the outcome recorded for Cc1nc2ccccc2c(=O)n1-c1ccc(F)c(NC(=O)c2cccs2)c1 in the assay.
Response: inactive

Query: Entry CSc1nnc(NC(=O)c2nc(S(=O)(=O)Cc3ccc(C)cc3)ncc2Cl)s1 : call = ?
Response: inactive

Query: What outcome does the record of this test show for COc1ccc(-n2nnnc2CNC(=O)c2ccc3ccccc3c2)cc1 ?
Response: active

====

molecular target: High affinity choline transporter 1 (Homo sapiens) (UniProt Q9GZV3); assay: inhibitors of human choline transporter CHT (AID 488975); conditions: CHT-expressing cells, membrane potential dye, choline response, at 10 µM
Sequence (Q9GZV3 whole entry, looked up): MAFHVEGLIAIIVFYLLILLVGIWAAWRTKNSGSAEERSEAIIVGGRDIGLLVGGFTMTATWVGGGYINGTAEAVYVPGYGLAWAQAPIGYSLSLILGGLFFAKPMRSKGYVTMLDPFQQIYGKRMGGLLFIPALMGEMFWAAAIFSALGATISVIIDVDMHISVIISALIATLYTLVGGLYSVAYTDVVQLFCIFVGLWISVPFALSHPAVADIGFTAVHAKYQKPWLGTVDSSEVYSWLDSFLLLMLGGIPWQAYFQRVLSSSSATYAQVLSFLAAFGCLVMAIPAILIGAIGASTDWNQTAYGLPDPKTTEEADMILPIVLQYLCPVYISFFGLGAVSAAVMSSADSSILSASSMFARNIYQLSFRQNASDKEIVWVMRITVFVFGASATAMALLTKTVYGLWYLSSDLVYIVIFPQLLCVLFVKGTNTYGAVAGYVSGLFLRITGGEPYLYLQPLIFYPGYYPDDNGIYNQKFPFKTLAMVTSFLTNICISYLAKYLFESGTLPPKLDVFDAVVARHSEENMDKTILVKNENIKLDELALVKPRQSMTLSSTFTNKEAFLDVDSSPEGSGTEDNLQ
About 2,600 (0.84%) of roughly 310,000 compounds were called active.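 The calls were made as follows: active = B-score over 3 SD under the library average, and starting fluorescence ratio not unusually high; inactive = the rest.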 The sample holds actives, similar compounds and a random draw of the others, so the mix is not that of the screen.
Outcome field: choose from true = active, false = inactive

Query: Look up the recorded call for Cc1cc(OCC(=O)N(C)c2c(N)n(Cc3ccccc3)c(=O)[nH]c2=O)c(C(C)C)cc1Cl in this test.
Response: false

Query: Returns: the outcome recorded for CNC(=O)c1ccc2nc(NC(C)=O)sc2c1 in this assay.
Response: false

Further cases:
Query: Record lookup: outcome of this test for COc1ccc(C(=O)OCC(=O)c2ccc(Cl)s2)c(OC)c1OC ?
Response: false

Query: What did this assay record as the result for CCCCCN(C(=O)CCC(=O)OCC(=O)NC1CCC(C)CC1)c1c(N)n(CCCC)c(=O)[nH]c1=O (stereo not given) ?
Response: false

Query: Please share the test call associated with COc1ccc(C(=O)N(Cc2ccccc2)c2ccc(C)cc2)cc1S(=O)(=O)N1CCOCC1 .
Response: false

Query: Give the logged outcome of this assay for the following compound: COCCNC(=O)c1ccc(Cn2c(SCC(=O)NCC3CCCO3)nc3ccc(Br)cc3c2=O)cc1 (stereo not given)
Response: false

====

target: High affinity choline transporter 1 (Homo sapiens); assay: inhibitors of human choline transporter CHT (AID 488975); settings: CHT-expressing cells, membrane potential dye, choline response, at 10 µM
The campaign covered roughly 310,000 compounds. About 2,600 (0.84%) were called active.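 The calls were made as follows: active = B-score over 3 SD under the library average, and starting fluorescence ratio not unusually high; inactive = the rest.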 The sample as a whole holds a higher share of actives than the screen did.
Form entry, call: pick from active, inactive

Worked cases, answers included:
Query: Hello, I am checking results. What call was entered for CN(C)c1ccc(C2N(C)C(=O)c3ccccc3N2C)cc1 (stereo not given) ?
Response: inactive

Query: How was Nc1nc(NCC(=O)O)nc(N2CCCCCC2)c1[N+](=O)[O-] classified in this test?
Response: inactive

Query: How did this test come out for COc1cc(NC(=O)CSC(=S)N2CCCC2)c(OC)cc1Cl ?
Response: inactive

Query: Hello, I am checking results. What call was entered for CS(=O)(=O)N1CCN(c2ccc(C(=O)NC3C4CC5CC(C4)CC3C5)cc2[N+](=O)[O-])CC1 (stereo not given) ?
Response: inactive

Query: recorded result category for CCOC(=O)C1(CCOc2ccccc2)CCN(Cc2cc(OC)cc(OC)c2)CC1 in this test
Response: inactive

Query: Assay result, entry O=C(NCCc1ccc2c(c1)OCCO2)c1cc2ccccc2o1 — outcome?
Response: active

Query: Called result for COc1ccc(CC2c3cc(OC)c(OC)cc3CC[N+]2(C)CCC(=O)OCCCCCOC(=O)CC[N+]2(C)CCc3cc(OC)c(OC)cc3C2Cc2ccc(OC)c(OC)c2)cc1OC (stereo not given)
Response: inactive

Query: I'd appreciate the recorded outcome for NC1=NC(c2ccc([N+](=O)[O-])cc2)N(c2ccc(F)cc2)C(N)=N1 (stereo not given) from this test.
Response: inactive

Query: Field: outcome | Entry: CN1C(C(=O)NCc2ccco2)CC2Cn3c(nc4ccccc43)C21 (stereo not given)
Response: inactive

Query: Hi, do you know how CCC(C)NC(=O)c1ccc(N2CCC3(CC2)OCCO3)c([N+](=O)[O-])c1 (stereo not given) came out in this test?
Response: inactive

***
Query: Hi, sorry to bother you, what did the test record for O=C(O)c1ccc(S(=O)(=O)N2CCC(Cc3ccccc3)CC2)cc1 ?
Response: inactive

Query: What call does the record list for COc1ccc(/C=C2\SC(=O)N(CCC(=O)NCCCn3ccnc3)C2=O)cc1 ?
Response: inactive

Query: Per the records of this test, what outcome belongs to COc1cc(N)c(Cl)cc1C(=O)OCC(=O)c1ccc2c(c1)NC(=O)CO2 ?
Response: inactive

Query: What did this assay record as the result for COc1ccc(/C=C2/SC(=O)N(CCCCCC(=O)Nc3ccccc3C(=O)O)C2=S)cc1 ?
Response: active

Query: I'd appreciate the recorded outcome for N=c1oc2ccccc2cc1C(=O)NCc1ccccc1 from this test.
Response: inactive

Query: Give the logged outcome of this assay for the following compound: CN(C)c1ccc(Nc2c3c4c(cccc4n(C)c2=O)C(=O)c2ccccc2-3)cc1
Response: active

Query: # lookup: test call for Cc1ccn2c(=O)c(NC(=O)c3cccc4ccccc34)c(C)nc2c1
Response: inactive

====

biological target: High affinity choline transporter 1 (Homo sapiens) (UniProt Q9GZV3); assay: inhibitors of human choline transporter CHT (AID 488975); conditions: CHT-expressing cells, membrane potential dye, choline response, at 10 µM
Among all 310,000 compounds or so, about 2,600 (0.84%) were called active.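 How the source made its calls: active means B-score over 3 SD under the library average, and starting fluorescence ratio not unusually high; inactive means the rest.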 This excerpt belongs to a sample that is enriched for actives.
Outcomes you can answer with include only these: true = active, false = inactive

Observe how each entry below is paired with its result.
Query: Tell me the assay call for COc1ccc(-c2cc(C(=O)N/N=C/c3cccnc3)c3ccccc3n2)c(OC)c1 please.
Response: false

Query: Tell me the recorded outcome of this test for Cc1ccc(S(=O)(=O)NCCC(=O)OCC(=O)N(C)c2ccccc2)cc1 .
Response: false

Query: Test call, this compound: COc1ccc(/C=C2\SC(=O)N(CCC(=O)NC3CCS(=O)(=O)C3)C2=O)cc1 (centres undefined)
Response: false

Query: # lookup: test call for C#CCOCCOCCOCCNc1nc(N2CCN(C(=O)Cn3cc(CCCCN)nn3)CC2)nc(N2CCN(C(=O)[C@H](CCCCN)n3cc(CCC(=O)O)nn3)CC2)n1
Response: false

Query: In this assay, the call recorded for COc1ccc(Cl)cc1NC(=O)CN(C)C(=O)c1cc2ccccc2cc1OC was what?
Response: false

Query: Lab log entry: CC(C(=O)NC1CCS(=O)(=O)C1)N1C(=O)/C(=C/c2ccc(Cl)cc2)SC1=S (centres undefined) — outcome as called in the assay?
Response: true

Query: In this assay, the call recorded for CN(C(=O)CN1C(=O)/C(=C/c2ccc(Cl)cc2)SC1=S)C1CCS(=O)(=O)C1 (centres undefined) was what?
Response: false

Query: What call does the record list for Cc1ccc(CNC(=O)c2cc(-c3ccccc3C)n(CC3CC(c4cccc([N+](=O)[O-])c4)=NO3)n2)cc1 (centres undefined) ?
Response: false

Field: next compound
Query: // param item: COc1ccc(NC(=O)CN2C(=O)CSc3ccc(S(=O)(=O)N4CCC(C)CC4)cc32)cc1 ; yields the recorded call
Response: false

====

target: High affinity choline transporter 1 (Homo sapiens); assay: inhibitors of human choline transporter CHT (AID 488975); details: CHT-expressing cells, membrane potential dye, choline response, at 10 µM; hits give low values;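 as to B-score: choline stimulus applied at its EC90 after an EC20 pre-addition; B-score computed on integrated fluorescence ratio after choline addition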
The campaign covered roughly 310,000 compounds. About 2,600 (0.84%) were called active. The sample holds actives, similar compounds and a random draw of the others, so the mix is not that of the screen.
quantity measured: B-score

Field: example entries. Status: answers known.
Query: Please report the recorded B-score for O=C(NCCC1CCCCN1S(=O)(=O)c1cccs1)C(=O)Nc1ccc(F)cc1F (stereo not given) .
Response: inactive

Query: Quick one: B-score for CCOc1ccc(CCNC(=O)COC(=O)c2c(OC)cccc2OC)cc1OCC ?
Response: inactive

Query: May I ask what B-score has been recorded for CC1CC(C)CN(S(=O)(=O)c2ccc(C(=O)NN3CCOCC3)cc2)C1 (stereo not given) ?
Response: inactive

Query: Reported B-score, compound Brc1cnc2ccccc2c1N1CCCCC1 : ____
Response: inactive

Query: Which B-score reading was recorded for the compound CCC(=O)Nc1nnc(S(=O)(=O)N2CCCc3ccccc32)s1 ?
Response: inactive

Continuing:
Query: B-score lookup needed for CC1CN(S(=O)(=O)c2ccc(C(=O)NN3CCN(C)CC3)cc2)CC(C)O1 (stereo not given) , thanks.
Response: -5.14 (active)

Query: Any idea what B-score was measured for Cc1cc(S(=O)(=O)Nc2ccc(C(=O)NCC(c3ccco3)N3CCCC3)cc2)ccc1F (stereo not given) ?
Response: inactive

Query: I would be grateful if you could share the reported B-score for COc1ccc(C(CNC(=O)c2cccc(S(=O)(=O)Nc3ccccc3Cl)c2)N2CCOCC2)cc1 (stereo not given) .
Response: inactive

Query: Need B-score, item Cc1ccc(C)c(C(=O)N2CCC(n3nccc3NC(=O)C3CC3)CC2)c1
Response: inactive
